experimental.system: HLA-A*02:01 (Homo sapiens, UniProt P04439, D140Y/D185E/D98H/E176V/E277Q/G131W/G231S/I119V/I121R/I166T/I218V/L300P/L318F/N151K/N90K/P208A/P217A/Q86G/Q94H/R138H/R169H/T345S)
experimental.details: experimental peptide/MHC binding assay of the consensus peptides
condition.context: consensus peptides optimized for HLA-A*02:01; values below 0.5 nM are beyond the range of sensitivity of the assay; tested by co-operation partner (J. Sidney); read-out: experimental peptide/MHC binding affinity expressed as IC50
Where no end group is shown, it is not given here.
reported.metric: pIC50
FYI, pIC50 means -log10 of a concentration in mol per litre.

Please review the following examples before continuing.
INSERT INTO results (item_sequence, reported_metric, measured_value) VALUES
  ('YLAEGLASL [YLAEGLASL]', 'pIC50', 8.89),
  ('WWWFFWYVW [WWWFFWYVW]', 'pIC50', 7.35);

# input for lookup
QUERY: Quick one: pIC50 for FLWEVTPTV [FLWEVTPTV] ?
RESULT: 8.96

Source listed as paper PMC3225262.
